Biological target: T1, mouse MAdCAM expressed on cells (mouse, UniProt Q61826 22-405)
T1 construct: whole, on cells
T1 sequence (looked up): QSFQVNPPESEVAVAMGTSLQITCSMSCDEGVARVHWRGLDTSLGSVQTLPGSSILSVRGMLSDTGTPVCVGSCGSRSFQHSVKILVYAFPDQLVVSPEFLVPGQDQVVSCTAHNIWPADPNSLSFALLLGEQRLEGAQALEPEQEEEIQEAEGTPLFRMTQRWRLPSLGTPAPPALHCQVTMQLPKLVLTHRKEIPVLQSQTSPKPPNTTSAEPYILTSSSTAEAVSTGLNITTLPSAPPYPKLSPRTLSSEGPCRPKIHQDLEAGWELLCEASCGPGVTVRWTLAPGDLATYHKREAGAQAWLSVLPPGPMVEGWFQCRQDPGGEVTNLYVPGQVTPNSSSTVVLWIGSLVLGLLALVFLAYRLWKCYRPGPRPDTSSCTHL
Experiment: cell binding
observation_type: binding result

| binder | observation_type | result |
| --- | --- | --- |
| MAdCAM antibody Table 1 clone 40 (scFv) scFv: QVQLVQSGAEVKKPGASVKVSCKASGYTFTSYGISWVRQAPGQGLEWMGIINPRGGSTIFAQKFQGRVTMTRDTSTSTVYMELSSLRSEDTAVYYCARGTRSSGWYGWFDPWGQGTLVTVSSGGGGSGGGGSGGGGSGGGGSDIQMTQSPSSLSASVGDRVTITCRASQGIGNWLAWYQQKPGKAPKLLIYAASNLETGVPSRFSGSGSGTDFTLTISSLQPEDFATYYCQQIHSYPLTFGGGTKVEIK | binding result | no binding |
| MAdCAM antibody Table 1 clone 58 (scFv) scFv: QVQLVQSGAEVKKPGASVKVSCKASGYTFTGYYMHWVRQAPGQGLEWMGIINPSGGNTKYAQKFQGRVTMTRDTSTSTVYMELSSLRSEDTAVYYCTTADYYYYMDVWGKGTTVTVSSGGGGSGGGGSGGGGSGGGGSDIQMTQSPSSLSASVGDRVTITCRASQGISNYLAWYQQKPGKAPKLLIYAASSLQSGVPSRFSGSGSGTDFTLTISSLQPEDFATYYCQQYYSNADFGQGTKVEIK | binding result | no binding |
| MAdCAM antibody Table 1 clone 44 (scFv) scFv: EVQLVESGGGLVKPGGSLRLSCAASGFTFSSYWMSWVRQAPGKGLEWVSAIGTGGGTYYAAPVKGRFTISRDDSKNTLYLQMNSLKTEDTAVYYCAREWLVPYYGMDVWGQGTTVTVSSGGGGSGGGGSGGGGSGGGGSDIQMTQSPSSLSASVGDRVTITCRASQSISRWLAWYQQKPGKAPKLLIYGASNLQSGVPSRFSGSGSGTDFTLTISSLQPEDFATYYCQQSYSTPWTFGQGTKVEIK | binding result | no binding |

Values were extracted from patent US20230235004A1.
